# tgt: Cytochrome P450 1A2 (Homo sapiens, UniProt P05177)
# Sequence (P05177 whole entry): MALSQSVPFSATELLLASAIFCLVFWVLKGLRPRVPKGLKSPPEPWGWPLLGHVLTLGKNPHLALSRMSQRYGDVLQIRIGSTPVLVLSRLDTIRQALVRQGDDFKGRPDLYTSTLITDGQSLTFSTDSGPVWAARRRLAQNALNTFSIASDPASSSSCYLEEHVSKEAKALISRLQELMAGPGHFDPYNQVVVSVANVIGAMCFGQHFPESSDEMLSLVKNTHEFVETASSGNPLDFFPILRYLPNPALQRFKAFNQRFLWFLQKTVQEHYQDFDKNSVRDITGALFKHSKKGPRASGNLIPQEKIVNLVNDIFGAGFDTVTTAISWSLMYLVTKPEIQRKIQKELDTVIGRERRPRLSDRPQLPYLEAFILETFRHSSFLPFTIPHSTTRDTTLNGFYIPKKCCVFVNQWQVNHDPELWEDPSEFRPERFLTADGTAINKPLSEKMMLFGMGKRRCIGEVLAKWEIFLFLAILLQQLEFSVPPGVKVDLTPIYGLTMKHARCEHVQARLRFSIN
# experimental_details: Inhibition of recombinant human CYP1A2 expressed in HEK293 cells using 3-cyano-7-ethoxycoumarin as substrate pretreated for 30 mins followed by substrate addition measured for 60 mins by fluorescence assay
# Assay type: ADME
Decision: IC50 beneath 1000 nM gives 1; IC50 meeting or exceeding 1000 nM gives -1.

Observe how each entry below is paired with its result.
COc1ccc(/C=C/C(=O)c2ccncc2)cc1OC    1
CCOc1cc(/C=C/C(=O)c2ccncc2)cc(OC)c1OC    -1
O=C(/C=C/c1ccc2c(c1)OCO2)c1ccncc1    -1

Please state whether IC50 is below 1000 nM for CCOc1c(OC)cc(/C=C/C(=O)c2ccncc2)cc1OC
-1

For this compound, is IC50 lower than 1000 nM? CCOc1cc(/C=C/C(=O)c2ccncc2)cc(OC)c1OCC
1

Decide: IC50 of O=C(/C=C/c1cccc2ccccc12)c1ccncc1 strictly below 1000 nM?
1

Lab log: compare recorded IC50 with 1000 nM; is it strictly lower for COc1cc(/C=C/C(=O)c2ccncc2)cc(OC)c1 ?
1

Answer whether the compound COc1cc(/C=C/C(=O)c2ccncc2)cc(OC)c1OC has IC50 strictly less than 1000 nM
-1

Dear reviewer, please state whether COc1ccc(/C=C/C(=O)c2ccncc2)cc1 has IC50 strictly beneath 1000 nM.
-1

Is IC50 of COc1ccccc1/C=C/C(=O)c1ccncc1 strictly below 1000 nM?
1

Here's an entry: COc1ccc(/C=C/C(=O)c2ccncc2)c(OC)c1OC . Is its IC50 below 1000 nM?
1

Criterion: IC50 strictly below 1000 nM. Is it met by COc1cccc(/C=C/C(=O)c2ccncc2)c1 ?
1

Is it true that IC50 reported for CCOc1cc(/C=C/C(=O)c2ccncc2)cc(OCC)c1OCC is less than 1000 nM?
-1

###

# tgt: Cytochrome P450 2D6 (Homo sapiens, UniProt P10635)
# Sequence (P10635 whole entry): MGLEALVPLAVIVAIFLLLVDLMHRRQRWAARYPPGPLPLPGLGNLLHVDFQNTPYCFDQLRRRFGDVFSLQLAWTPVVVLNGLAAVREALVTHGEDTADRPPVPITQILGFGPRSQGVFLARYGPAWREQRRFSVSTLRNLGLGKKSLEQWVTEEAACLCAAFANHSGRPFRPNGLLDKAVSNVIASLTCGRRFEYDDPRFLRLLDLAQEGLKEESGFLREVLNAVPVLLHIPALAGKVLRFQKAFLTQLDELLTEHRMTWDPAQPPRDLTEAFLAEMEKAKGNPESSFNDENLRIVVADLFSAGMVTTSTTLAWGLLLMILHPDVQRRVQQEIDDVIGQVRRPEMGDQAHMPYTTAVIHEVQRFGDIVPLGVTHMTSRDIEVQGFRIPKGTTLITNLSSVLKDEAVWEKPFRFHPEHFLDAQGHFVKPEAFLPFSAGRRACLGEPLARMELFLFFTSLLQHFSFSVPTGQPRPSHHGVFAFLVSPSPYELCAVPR
# experimental_details: Inhibition of human CYP2D6 expressed in yeast microsomal membranes using 7-ethoxy-methyloxy-3-cyanocoumarin as substrate measured after 10 mins by fluorescence assay
# Type: ADME, cell membranes, Microsomal Membrane
Recorded measurements of IC50, one per entry
Unit µM implied. Number only.

COc1cccc(/C=C/C(=O)c2ccncc2)c1    12
COc1ccc(/C=C/C(=O)c2ccncc2)cc1OC    8
COc1ccc(/C=C/C(=O)c2ccncc2)cc1    15
CCOc1cc(/C=C/C(=O)c2ccncc2)cc(OC)c1OCC    15

For reference, reported IC50 for COc1cc(/C=C/C(=O)c2ccncc2)cc(OC)c1 stands at 16

COc1cc(/C=C/C(=O)c2ccncc2)cc(OC)c1OC yielded IC50 of 5
